# Test system: P388 leukemia ip, CD2F1 mice, survival T/C
# experiment: NCI In Vivo Anticancer Drug Screen. Data for tumor model P388 Leukemia (intraperitoneal) in CD2F1 (CDF1) mice
# measurement.context: endpoint: median survival time; dose: 50.0 mg/kg/injection; schedule: Q01DX009 (ip); vehicle: saline with Tween-80; higher = longer survival
Toxic doses and inconclusive results are not listed.
Each record here notes measured T/C.

C1=CC(=NN=P(c2ccccc2)(c2ccccc2)c2ccccc2)C=C1	89 % of control
COc1ccccc1N1CCN(CCc2c[nH]c3cc4c(cc23)OCO4)CC1	104 % of control
Cc1ccc(NS(=O)(=O)c2ccccc2)nc1	100 % of control
O=[N+]([O-])c1ccccc1OCC(O)CCl (stereo unspecified)	102 % of control
Clc1nnc(Cl)s1	95 % of control

Would you kindly look at the next entry?
Task item: Please report the recorded T/C for COC(c1ccc(OCc2ccccc2)cc1)C(Br)C(=O)c1ccc(Cl)cc1Cl (stereo unspecified) .
Reply: 88 % of control
